Reference source for all entries: PubChem BioAssay AID1159580

MEASUREMENT_PROTOCOL: chemical genetic growth profiling, strain panel (AID 1159580);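 also: tested at 20 µM; growth read once vehicle control cultures reached saturation at 30 °C; 1 = growth at the plate median or of vehicle wells; lower values mean less growth of the strain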
RUN_PARAMETERS: S. cerevisiae deletion strains, growth OD, locus YAL026C, strain drs2
The whole screen tested about 5,500 compounds, of which about 2,000 (36%) were called active. About 18% were inconclusive and are not listed. Rule as the data show it: active = normalized growth mostly below about 0.91 (no sharp cut-off); inconclusive = no clear call, values can overlap the other calls; inactive = mostly above about 0.92. The list shows a part of the results.
Please answer using one outcome listed in active, inactive

[[record]]
molecule = "CN(C)CC/C=C1\\c2ccccc2Sc2ccc(Cl)cc21"
assigned_category = "active"

[[record]]
molecule = "CCCCCCCCCCCCCCCC[N+](C)(C)C"
assigned_category = "active"

[[record]]
molecule = "CC1CC2C3CCC4=CC(=O)C=C[C@]4(C)[C@@]3(F)[C@@H](O)C[C@]2(C)[C@@]1(O)C(=O)CO (stereo partly specified)"
assigned_category = "inactive"

[[record]]
molecule = "Oc1cc(Cl)ccc1Oc1ccc(Cl)cc1Cl"
assigned_category = "active"

[[record]]
molecule = "C=C1C2CC[C@H]3[C@]4(C)C[C@H](OC5OC(CO)C(OS(=O)(=O)O)C(OS(=O)(=O)O)C5OC(=O)CC(C)C)C[C@@H](C(=O)O)[C@H]4CC[C@]3(C2)[C@H]1O (stereo partly specified)"
assigned_category = "inactive"


Turning to the following molecule.
### Prompt In this assay, the call recorded for CN1CCCN=C1COC(=O)C(O)(c1ccccc1)C1CCCCC1 (stereo unspecified) was what?
### Response inactive

====

MEASUREMENT_PROTOCOL: chemical genetic growth profiling, strain panel (AID 1159580);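 also: tested at 20 µM; growth read once vehicle control cultures reached saturation at 30 °C; 1 = growth at the plate median or of vehicle wells; lower values mean less growth of the strain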
RUN_PARAMETERS: S. cerevisiae deletion strains, growth OD, locus YLR330W, strain CHS5, active compounds read low
In all, about 5,500 compounds went through this assay and about 2,000 (36%) were called active. Inconclusive results (about 18%) are left out. The list shows a part of the results.
Returns: string. Value is label 1 if measured normalized growth is below 1, and label 0 if it is greater than or equal to it.

Consider the following illustrative entries.
[[record]]
compound = "CC(C(=O)O)c1cccc(Oc2ccccc2)c1 (stereo unspecified)"
assigned_category = "label 1"

[[record]]
compound = "CCC(=O)O[C@H]1CCC2C3CCC4=CC(=O)CC[C@]4(C)C3CC[C@@]21C (stereo partly specified)"
assigned_category = "label 1"


### Prompt normalized growth strictly < 1 for this compound? O=C(CC[N+](=O)[O-])OC[C@H]1O[C@@H](O)[C@H](OC(=O)CC[N+](=O)[O-])[C@@H](OC(=O)CC[N+](=O)[O-])[C@@H]1OC(=O)CC[N+](=O)[O-]
### Response label 0

====

# normalized growth per entry
MEASUREMENT_PROTOCOL: chemical genetic growth profiling, strain panel (AID 1159580);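 also: tested at 20 µM; growth read once vehicle control cultures reached saturation at 30 °C; 1 = growth at the plate median or of vehicle wells; lower values mean less growth of the strain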
RUN_PARAMETERS: S. cerevisiae deletion strains, growth OD, locus YGL078C, strain dbp3, active compounds read low
In all, about 5,500 compounds went through this assay and about 2,000 (36%) were called active. Inconclusive results (about 18%) are left out. This is one part of the list.
Output: the number by itself.

The examples below pair each entry with its known result.
[[record]]
chemical_smiles = "Cc1cc(O)c(C=O)c(O)c1C(=O)O"
result = 1.01

[[record]]
chemical_smiles = "CCOC(=O)c1c(C)cc(O)c(C)c1O"
result = 0.968


Please turn your attention to the following entry.
# normalized growth (compound: COc1ccc2cc([C@H](C)CO)ccc2c1 ) is 0.982
